Kindly supply the reported Activity, No BP, DF-500000 values for the records listed here.
Target: T1, IL-18 receptors on HEK-Blue IL-18 reporter cells (UniProt Q13478 19-541; O95256 20-599, limits assumed); further: unit not given here
T1 sequence (looked up) 1: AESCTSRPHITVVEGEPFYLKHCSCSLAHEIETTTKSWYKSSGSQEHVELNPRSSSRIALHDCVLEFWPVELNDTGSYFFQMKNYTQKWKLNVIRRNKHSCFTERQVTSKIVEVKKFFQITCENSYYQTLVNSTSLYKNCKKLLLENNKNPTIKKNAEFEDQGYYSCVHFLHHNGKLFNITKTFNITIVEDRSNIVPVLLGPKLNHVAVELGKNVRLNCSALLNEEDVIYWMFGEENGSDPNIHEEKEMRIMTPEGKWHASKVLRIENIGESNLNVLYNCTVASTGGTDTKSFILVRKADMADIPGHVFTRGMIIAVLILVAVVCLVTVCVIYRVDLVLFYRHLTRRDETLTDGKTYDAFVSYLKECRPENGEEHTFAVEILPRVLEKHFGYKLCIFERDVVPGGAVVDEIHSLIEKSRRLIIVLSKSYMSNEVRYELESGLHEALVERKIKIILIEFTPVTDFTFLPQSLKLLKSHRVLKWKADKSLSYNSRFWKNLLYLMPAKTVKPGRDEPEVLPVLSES
T1 sequence (looked up) 2: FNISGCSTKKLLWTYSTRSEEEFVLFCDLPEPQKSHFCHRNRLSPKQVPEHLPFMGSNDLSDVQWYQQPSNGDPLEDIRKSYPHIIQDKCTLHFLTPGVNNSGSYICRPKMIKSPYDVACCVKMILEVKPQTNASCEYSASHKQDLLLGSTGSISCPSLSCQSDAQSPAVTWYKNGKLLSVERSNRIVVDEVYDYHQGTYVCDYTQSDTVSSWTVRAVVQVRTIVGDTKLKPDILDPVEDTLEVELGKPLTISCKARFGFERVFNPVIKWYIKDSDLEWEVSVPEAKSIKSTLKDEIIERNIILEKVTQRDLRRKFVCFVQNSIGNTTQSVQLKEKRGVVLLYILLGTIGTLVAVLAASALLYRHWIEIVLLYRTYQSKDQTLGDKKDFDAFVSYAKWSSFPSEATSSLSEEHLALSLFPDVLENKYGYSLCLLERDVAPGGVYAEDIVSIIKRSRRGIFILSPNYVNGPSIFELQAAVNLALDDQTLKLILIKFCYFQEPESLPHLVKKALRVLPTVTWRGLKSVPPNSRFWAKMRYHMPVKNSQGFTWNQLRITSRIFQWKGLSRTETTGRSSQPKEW
Assay: cell-based or functional assay
Provide a numeric answer; units are not to be included.

### Prompt Report Activity, No BP, DF-500000 for IL-18 variant G3P, E6K, D54Y, S55P, Q56H, T63S, N91S, R104Q (ligand) YFPKLKSKLSVIRNLNDQVLFIDQGNRPLFEDMTDSDMRDNAPRTIFIISMYKYPHPRGMAVSISVKSEKISTLSSENKIISFKEMNPPDSIKDTKSDIIFFQQSVPGHDNKMQFESSSYEGYFLASEKERDLFKLILKKEDELGDRSIMFTVQNED please.
### Response 1.1

### Prompt Try this binder next: IL-18 variant G3L, E6Q, T63S, N91L, R104P (ligand) YFLKLQSKLSVIRNLNDQVLFIDQGNRPLFEDMTDSDMRDNAPRTIFIISMYKDSQPRGMAVSISVKSEKISTLSSENKIISFKEMNPPDLIKDTKSDIIFFQPSVPGHDNKMQFESSSYEGYFLASEKERDLFKLILKKEDELGDRSIMFTVQNED
### Response 0.09

### Prompt Try this binder next: IL-18 variant G3Q, E6N (ligand) YFQKLNSKLSVIRNLNDQVLFIDQGNRPLFEDMTDSDMRDNAPRTIFIISMYKDSQPRGMAVTISVKSEKISTLSSENKIISFKEMNPPDNIKDTKSDIIFFQRSVPGHDNKMQFESSSYEGYFLASEKERDLFKLILKKEDELGDRSIMFTVQNED
### Response 1.93
